Target: Neuropilin-1 (Rattus norvegicus)
Experiment: Inhibition of biotin-labelled VEGF165 binding to rat recombinant NRP-1/Fc chimeric protein at 1 uM incubated for overnight by competitive ELISA method relative to control
Positions of bridges follow the written chain, without caps; N, C: chain ends. Non-standard residues stand in square brackets, D forms with d. Residues, ends and D or L forms follow the SMILES beside them. Orn = NCCC[C@H](N)C(=O)O
Measured Parameter: inhibition (%)

{"Molecule": "N=C(N)NCCC[C@H](NC(=O)[C@@H]1CC(=O)NCCCC[C@H](N)C(=O)N2CCC[C@H]2C(=O)N1)C(=O)O (H-KPDR-OH; lactam 1-3)", "Unit Tag": "%", "inhibition": 11.8}

(I) N=C(N)NCCC[C@H](NC(=O)CC[C@@H]1NC(=O)[C@H]2CCCN2C(=O)[C@@H](N)CCCCNC(=O)CC[C@@H](C(=O)N[C@@H](CCCNC(=N)N)C(=O)O)NC(=O)[C@H]2CCCN2C(=O)[C@H](CCCCN)NC1=O)C(=O)O
(II) N=C(N)NCCC[C@H](NC(=O)[C@@H]1CCCCNC(=O)CC[C@H](N)C(=O)N2CCC[C@H]2C(=O)N1)C(=O)O (H-EPKR-OH; lactam 1-3)
query: Hey, which is lower on measured inhibition, I or II ? Response format: the label of the selected entry.
result: I
(I: 46.6%, II: 79%)

(P) N=C(N)NCCC[C@H](NC(=O)[C@@H]1CCC(=O)NCCC[C@H](N)C(=O)N2CCC[C@H]2C(=O)N1)C(=O)O (H-[Orn]PER-OH; lactam 1-3)
(Q) N=C(N)NCCC[C@H](NC(=O)[C@@H]1CCC(=O)NCCCC[C@@H](N)C(=O)N2CCC[C@H]2C(=O)N1)C(=O)O (H-[dK]PER-OH; lactam 1-3)
query: Task for the reader: decide whether P or Q has the larger inhibition. Response format: the label of the selected entry.
result: P
